Target: T1, Macaca fascicularis IL-36R on cells (Macaca fascicularis, UniProt A0A2K5WSK9 20-558)
T1 sequence: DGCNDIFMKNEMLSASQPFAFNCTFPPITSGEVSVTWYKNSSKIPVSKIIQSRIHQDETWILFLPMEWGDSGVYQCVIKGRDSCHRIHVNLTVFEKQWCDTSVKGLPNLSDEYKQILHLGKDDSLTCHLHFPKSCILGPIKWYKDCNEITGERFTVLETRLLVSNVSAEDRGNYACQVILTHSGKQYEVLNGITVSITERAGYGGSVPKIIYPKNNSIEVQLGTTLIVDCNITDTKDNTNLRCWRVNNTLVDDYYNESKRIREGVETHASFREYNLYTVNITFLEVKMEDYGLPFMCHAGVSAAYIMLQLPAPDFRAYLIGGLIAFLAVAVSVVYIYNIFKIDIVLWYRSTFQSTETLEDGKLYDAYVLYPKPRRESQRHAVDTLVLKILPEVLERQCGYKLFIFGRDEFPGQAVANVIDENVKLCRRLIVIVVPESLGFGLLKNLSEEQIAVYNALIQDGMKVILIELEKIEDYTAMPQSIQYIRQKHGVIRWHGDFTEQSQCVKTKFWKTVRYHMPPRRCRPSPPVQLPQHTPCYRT
Assay: cell-based or functional assay
experimentalReadout: IC50 [M], NFκB-luciferase, 300 pM hIL-36γ (M)
Give the quantity in M, number only.

Example results:
| binder | experimentalValue |
| --- | --- |
| H4H14708P2 (antibody, human IgG4 S228P, kappa, V domains shown) VH: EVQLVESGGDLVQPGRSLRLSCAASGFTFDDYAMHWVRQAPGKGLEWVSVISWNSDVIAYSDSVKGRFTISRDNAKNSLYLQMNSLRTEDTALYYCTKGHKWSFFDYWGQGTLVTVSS VL: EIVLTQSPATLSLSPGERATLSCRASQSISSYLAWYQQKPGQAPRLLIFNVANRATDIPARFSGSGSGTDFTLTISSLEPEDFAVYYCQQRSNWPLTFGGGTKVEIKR | 1.2e-10 |
| H4H14731P (antibody, human IgG4 S228P, kappa, V domains shown) VH: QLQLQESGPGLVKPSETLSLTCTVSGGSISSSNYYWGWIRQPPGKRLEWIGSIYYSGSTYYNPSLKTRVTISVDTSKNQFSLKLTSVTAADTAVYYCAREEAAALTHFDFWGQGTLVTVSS VL: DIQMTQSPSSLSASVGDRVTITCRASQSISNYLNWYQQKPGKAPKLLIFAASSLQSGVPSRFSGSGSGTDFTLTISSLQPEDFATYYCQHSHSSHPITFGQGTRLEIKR | 5.4e-09 |
| H4H14700P2 (antibody, human IgG4 S228P, kappa, V domains shown) VH: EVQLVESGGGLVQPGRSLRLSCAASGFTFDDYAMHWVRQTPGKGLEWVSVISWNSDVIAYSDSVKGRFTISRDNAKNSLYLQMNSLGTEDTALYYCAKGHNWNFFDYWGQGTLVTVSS VL: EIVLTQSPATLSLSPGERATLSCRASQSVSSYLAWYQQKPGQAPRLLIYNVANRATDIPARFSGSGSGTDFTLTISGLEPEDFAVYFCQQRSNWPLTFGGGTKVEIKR | 1.8e-10 |

Requested read-out: IC50 [M], NFκB-luciferase, 300 pM hIL-36γ. Entry: H4H14699P2 (antibody, human IgG4 S228P, kappa, V domains shown, Fully human anti-IL-36R antibody) VH: EVQLVESGGGLVQPGRSLRLSCAASGFTFDDYAIHWVRQAPGKGLEWVSVISWNSDIIGYADSVKGRFTVSRDNAKNSLYLQMNSLRTEDTALYYCAKGYNWNFFDYWGQGTLVTVSS VL: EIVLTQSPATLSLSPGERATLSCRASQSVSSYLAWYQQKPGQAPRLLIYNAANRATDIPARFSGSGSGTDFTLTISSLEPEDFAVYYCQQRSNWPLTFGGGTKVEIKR
2e-10
